# Tested on: MDR1-MDCK cell monolayers
# ASSAY: MDCK-MDR1 permeability assay (BBB penetration potential)
# Format: in vitro ADME
# APPLIED_CONDITIONS: 5 μM, 120 minutes, pH 7.4
Field: MDCK-MDR1: % Recov A-B. Provide a value for each of the compounds that follow.
Give bare numbers, in %.

Worked set:
Request the reported MDCK-MDR1: % Recov A-B associated with CN(c1nnc(-c2ccc(-c3cnn(C)c3)cc2O)s1)[C@H]1C[C@@H]2CC[C@H]([C@H]1F)N2C (single isomer, unassigned) [Compound E-25A]
70

Cool, now `COc1cc(-c2ccc(-c3nnc(N(C4CC4)[C@H]4C[C@@H]5CC[C@@H](N5)[C@H]4F)s3)c(O)c2)cc(F)n1`
16

Attention now shifts to the item below.
Request the reported MDCK-MDR1: % Recov A-B associated with COc1cc(-c2ccc(-c3nnc(N(C)[C@H]4C[C@@H]5CC[C@@H](N5)[C@H]4F)s3)c(O)c2)ccn1 (single isomer, unassigned) [Compound E-11B]
17

====

# Test system: MDR1-MDCK cell monolayers
# ASSAY: MDCK-MDR1 permeability assay (BBB penetration potential)
# Format: in vitro ADME
# APPLIED_CONDITIONS: 5 μM, 120 minutes, pH 7.4
# Method: Each determination is performed in duplicate. […] Analytical conditions are outlined below. Papp=(dCr/dt)×Vr/(A×CA) (1)
QUANTITY_KIND: MDCK-MDR1: % Recov A-B (%)
Give bare numbers, in %.

Worked set:
Request the reported MDCK-MDR1: % Recov A-B associated with CN(c1nnc(-c2ccc(-c3cn[nH]c3)cc2O)s1)[C@H]1C[C@@H]2CC[C@@H](N2)[C@H]1F (single isomer, unassigned) [Compound E-7A]
99

Cool, now CN(c1nnc(-c2ccc(-c3cn[nH]c3)cc2O)s1)[C@@H]1C[C@H]2CC[C@@H]([C@@H]1F)N2C (single isomer, unassigned) [Compound E-23B]
83

Cool, now COc1cc(-c2ccc(-c3nnc(N(C)[C@H]4C[C@@H]5CC[C@@H](N5)[C@H]4F)s3)c(O)c2)ncn1 (single isomer, unassigned) [Compound E-5B]
37

Attention now shifts to the item below.
Request the reported MDCK-MDR1: % Recov A-B associated with CN(c1nnc(-c2cc(F)c(-c3cn[nH]c3)cc2O)s1)[C@@H]1C[C@H]2CC[C@H](N2)[C@@H]1F (single isomer, unassigned) [Compound E-6A]
59

====

# Test system: MDR1-MDCK cell monolayers
# ASSAY: MDCK-MDR1 permeability assay (BBB penetration potential)
# Type: in vitro ADME
# APPLIED_CONDITIONS: 5 μM, 120 minutes, pH 7.4
# Protocol: Each determination is performed in duplicate. […] Analytical conditions are outlined below. Papp=(dCr/dt)×Vr/(A×CA) (1)
QUANTITY_KIND: MDCK-MDR1: % Recov B-A (%)
Answers are plain numbers, in %.

Request the reported MDCK-MDR1: % Recov B-A associated with CN(c1nnc(-c2cc(F)c(-c3cn[nH]c3)cc2O)s1)[C@@H]1C[C@H]2CC[C@H](N2)[C@@H]1F (single isomer, unassigned)
80

Cool, now CN(c1nnc(-c2ccc(-c3cnn(C)c3)cc2O)s1)[C@H]1C[C@@H]2CC[C@H]([C@H]1F)N2C (single isomer, unassigned) [Compound E-25A]
82

Attention now shifts to the item below.
Request the reported MDCK-MDR1: % Recov B-A associated with CN(c1nnc(-c2ccc(-c3cnn(CF)c3)cc2O)s1)[C@H]1C[C@@H]2CC[C@@H](N2)[C@H]1F (single isomer, unassigned) [Compound E-10A]
80
